Molecular target: survivin (Homo sapiens, UniProt O15392)
Construct: gene BIRC5; His6-tagged full length survivin
Sequence (O15392 whole entry): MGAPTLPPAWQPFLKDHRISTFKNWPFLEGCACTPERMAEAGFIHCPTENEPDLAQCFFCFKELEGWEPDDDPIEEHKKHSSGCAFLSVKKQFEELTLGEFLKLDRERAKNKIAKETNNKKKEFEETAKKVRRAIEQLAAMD
Test: fluorescence intensity titration of the intrinsically fluorescent ligand with survivin; also CONA bead imaging and affinity resin capture
Format: binding
TEST READOUT: Kd (µM)
Entry rule: numbers only, all in µM.

[Q] API: value(readout=Kd, system=survivin (Homo sapiens, UniProt O15392)) for record COc1cc2[nH]c1/C=C1/C=CC(=N1)CCCCCCCCCc1ccc-2[nH]1
[A] 149

Just for reference, paper PMC8342005 is where these values come from.
